- assay.remarks: HepG2 liver cancer cell viability effects, profiling panel, resazurin fluorescence, 24 h, PK04 Diversity Set (AID 1172)
- experimental.conditions: higher = more signal
In this scheme, each record receives a class according to its z-score; the ranges are low (below -0.5), mid (-0.5 to below 0.5), high (0.5 or more)

Lab note: which band did `CO[C@H]1COC(=O)[C@@H]2CCCN2C(=O)CC=C[C@@H](C)[C@H](OC)COC(=O)CC=C[C@@H]1C` land in?
mid

How about CCN(CC)c1ccc(N2CC=CC34O[C@@H]5/C=C\CCC(C)OC(=O)C5[C@H]3C(=O)N(CCCO)[C@@H]4C2=O)cc1 (stereo partly drawn) ?
low

How about `COC(=O)[C@@H]1N=C(c2ccc(OCCCO)cc2)O[C@@H]1c1ccccc1N=[N+]=[N-]` ?
high

How about COc1cccc([C@H]2Oc3ccc(OC)cc3C(=NOC(C)CN3CCCc4nc(C)c(C)cc43)[C@@H]2O)c1 (stereo partly drawn) ?
low

How about `COC(=O)CC=C[C@@H](C)[C@@H](C=NO[C@H](C)c1cn([C@@H]2COC[C@H]2O)nn1)OC` ?
low

How about `COc1ccc([Si](C)(C)[C@H]2[C@H](CCO)O[C@@]3(C(=O)N(Cc4cccc(NC(=O)[C@H](C)O)c4)c4ccccc43)[C@@H]2C)cc1` ?
low

How about `CC(C)CON=C1C[C@@H](O)[C@@H](O)[C@@H]2[C@@H]3C(=O)N(Cc4ccccc4)C(=O)[C@@H]3CC[C@@H]12` ?
high

How about `C[C@@H]1C=CCC(=O)OC[C@H](C)C(=O)N2CCC[C@H]2C(=O)OC1` ?
high

How about `COC(=O)C1=C(C)N(Cc2ccccc2)[C@]23O[C@](C(=O)OC)(C(=O)N2[C@@H]1c1ccccc1)[C@H]1CCOC(=O)[C@H]13` ?
mid

How about `COCCOC(=O)N1C(=O)[C@@]2(c3cc(C#CCNC(N)=O)ccc31)[C@H](c1ccc(O)cc1)N1[C@H](c3ccccc3)[C@H](c3ccccc3)OC(=O)[C@H]1[C@@H]2C(=O)N1CCCCCCC1` ?
mid

How about CC(C)N1CC=CC23O[C@@H]4C=CCCOC(=O)C4[C@H]2C(=O)N(CCCCCCO)[C@@H]3C1=O (stereo partly drawn) ?
high

How about `C=CCOC(=O)[C@H]1[C@@H]2C(=O)O[C@@H](c3ccccc3)[C@@H](c3ccccc3)N2[C@@H](c2ccc(OCCOC(=O)[C@H]3C[C@H]4C(=O)N[C@@H](Cc5ccccc5)C(=O)N4[C@H]3c3ccc(O)cc3)cc2)[C@]12C(=O)Nc1ccccc12` ?
high

How about COC(=O)CC1OC1[C@H](C)[C@@H](OC)C(C)C (stereo partly drawn) ?
low

How about `COC(=O)[C@@H]1CCCN1C(=O)[C@@H](C)CO` ?
mid

How about `COCCCNC(=O)[C@]1(CCC(=O)OC(C)(C)C)N=C(c2ccc(OCCCO)cc2)O[C@@H]1c1ccccc1N=[N+]=[N-]` ?
high

How about `COc1ccc(-c2nc3c(c4c2C[C@H](C)OC4)CN(CCC(C)C)CC3)cc1` ?
mid

How about `CC(C)(C)OC(=O)CC[C@]1(C(=O)NCc2ccccc2)N=C(c2ccc(OCCCO)cc2)O[C@H]1c1ccccc1` ?
mid

How about Cn1cccc1C(O)C1C=CC2C(=O)NC(=O)C2N1Nc1ccccn1 (stereo not drawn) ?
low

How about `COCCOC(=O)N1C(=O)[C@@]2(c3cc(C#Cc4ccc(OC)cc4)ccc31)[C@H](C(=O)N1CCN(c3ncccn3)CC1)[C@H]1C(=O)O[C@H](c3ccccc3)[C@H](c3ccccc3)N1[C@@H]2c1ccc(OCCO)cc1` ?
mid

How about `COC(=O)CC=C[C@@H](C)[C@@H](C=NO[C@@H](C)c1cc(-c2c(C)cc(C)cc2C)no1)OC` ?
mid

How about `COCCOC(=O)N1C(=O)[C@@]2(c3cc(C#CC4(O)CCCCCC4)ccc31)[C@H](C(=O)N1CCN(c3ncccn3)CC1)[C@H]1C(=O)O[C@H](c3ccccc3)[C@H](c3ccccc3)N1[C@@H]2c1ccc(OCCO)cc1` ?
mid

How about `O=C1[C@H]2[C@H]3[C@H](O)[C@H](O)CC(=NO[C@@H]4O[C@H](CO)[C@@H](O)[C@H](O)[C@H]4O)[C@@H]3CC[C@H]2C(=O)N1Cc1ccccc1` ?
high

How about `CCc1cc2c(nc1CC)CCN(CCC(C)=NOC[C@@H](O)[C@H]1O[C@@H]3OC(C)(C)O[C@@H]3[C@H]1O)C2` ?
low

How about `CCCNC(=O)[C@@H]1c2ccccc2C(=O)N(Cc2ccccc2Cl)[C@H]1c1ccc(CO)cc1` ?
high

How about CCOC(=O)[C@H](Cc1ccccc1)NC(=O)CCC1CC(OC(=O)NCc2ccc3c(c2)OCO3)CC2(CCCC(COC(=O)NCC(c3ccccc3)c3ccccc3)O2)O1 (stereo partly drawn) ?
high

How about `CCOC(=O)C[C@H]1[C@H](OC(=O)c2cc3ccccc3oc2=O)[C@@H](NC(=O)c2ccc3ccccc3n2)c2cc(OCCCO)ccc2N1C(=O)c1ccccc1` ?
low

* * *

- Test system: XIP peptide (Xip251-270)
- assay.remarks: small-molecule binders of XIP peptide, primary screen, biochemical, small-molecule microarray, fluorescence 635/667 nm, 0.5 µg/mL protein (AID 1183)
- experimental.conditions: small-molecule microarray binding, fluorescence 635 nm; higher = more signal
Could you label it True if measured composite z-score is 0.5 or higher, and False otherwise?

Could you tell me if the measured composite z-score of `Cc1ccc(S[C@]2(C(=O)NCC(F)(F)F)CC(=O)N(Cc3ccccc3Cl)[C@@H]2c2ccc(CO)cc2I)cc1` reaches 0.5 or more?
False

How about `C=CCNC(=O)[C@H]1[C@@H]2C(=O)O[C@@H](c3ccccc3)[C@@H](c3ccccc3)N2[C@@H](c2ccc(O)cc2)[C@]12C(=O)N(C(=O)OCCOC)c1ccc(C#CC3=CCCCC3)cc12` ?
True

How about `COC(=O)[C@@H]1N=C(c2ccc(OCCCO)cc2)O[C@@H]1c1ccccc1N=[N+]=[N-]` ?
True

How about `C=CC[C@@H]1C=C[C@H](ON=C[C@@H](OC)[C@H](C)C=CCC(=O)OC)[C@@H](CO)O1` ?
False

How about `CCN1C(=O)[C@H]2[C@H]3[C@H](O)[C@H](O)CC(=NOCc4ccccc4)[C@@H]3CC[C@H]2C1=O` ?
False

How about `COCCCNC(=O)[C@@]1(Sc2ccc(C)cc2)CC(=O)N(Cc2ccccc2)[C@@H]1c1ccc(CO)cc1I` ?
False

How about COC(=O)[C@H](C)NC(=O)CCC1CC(OC(=O)NCc2cccc3ccccc23)CC2(CCCC(COC(=O)NCC3CCCCC3)O2)O1 (some centres undefined) ?
True

How about `CC[C@@H](c1ccccc1)n1c(=O)n2n(c1=O)[C@H]1[C@H](O)[C@@H]3O[C@@H]3C(=NOCC(C)C)[C@H]1CC2` ?
True

How about `COc1ccc(OC[C@H]2Cc3c(-c4ccccc4)nc4c(c3CO2)CN(CCOc2ccccc2)CC4)cc1` ?
True

How about `COc1cccc([C@H]2Oc3ccc(OC)cc3C(=NO[C@H](C)c3cn([C@@H]4COC[C@H]4O)nn3)[C@@H]2O)c1` ?
False

How about CCOC(=O)[C@H](Cc1ccccc1)NC(=O)CCC1CC(OC(=O)NCCc2ccc(F)cc2)CC2(CCCC(COC(=O)NCC(c3ccccc3)c3ccccc3)O2)O1 (some centres undefined) ?
True

How about `CC(C)=CCCC(C)=CCON=C1C[C@@H](O)[C@@H](O)[C@@H]2[C@@H]3C(=O)N(C[C@@H]4CCCO4)C(=O)[C@@H]3CC[C@@H]12` ?
True

How about `COC(=O)CC=C[C@@H](C)[C@H](OC)c1ccccc1Br` ?
False

How about `COCCOC(=O)N1C(=O)[C@@]2(c3cc(C#CCNC(N)=O)ccc31)[C@H](c1ccc(O)cc1)N1[C@H](c3ccccc3)[C@H](c3ccccc3)OC(=O)[C@H]1[C@@H]2C(=O)N1CCCCCCC1` ?
True

How about `O=C(NN=C1C[C@@H](O)[C@@H](O)[C@@H]2[C@@H]3C(=O)N(c4cccc(Oc5ccccc5)c4)C(=O)[C@@H]3CC[C@H]12)OCc1ccccc1` ?
False

How about COc1cccc([C@H]2Oc3ccc(OC)cc3C(=NOC(C)CN3CCCc4nc(C)c(C)cc43)[C@@H]2O)c1 (some centres undefined) ?
False

How about `CN(C)C(=O)[C@@]1(Cc2ccccc2)N=C(c2ccc(OCCCO)cc2)O[C@H]1c1ccccc1CN=[N+]=[N-]` ?
True

How about `O=C1[C@H]2[C@H]3[C@H](O)[C@H](O)CC(=NO[C@@H]4O[C@H](CO)[C@@H](O)[C@H](O)[C@H]4O)[C@H]3CC[C@H]2C(=O)N1Cc1ccccc1` ?
True

How about `CC(C)NC(=O)[C@@]1(C)c2ccccc2C(=O)N(Cc2cc(F)cc(C(F)(F)F)c2)[C@H]1c1ccc(CO)cc1` ?
True

How about `[N-]=[N+]=Nc1ccccc1C[C@@]1(C(N)=O)N=C(c2ccc(OCCCO)cc2)O[C@@H]1c1ccccc1` ?
False

How about `CO[C@H]1COC(=O)[C@H](C)NC(=O)[C@@H](C)COC(=O)CC=C[C@@H]1C` ?
True

How about `CC(C)=CCCC(C)=CCON=C1[C@H]2CCn3c(=O)n(Cc4cc5c(cc4Cl)OCO5)c(=O)n3[C@H]2[C@H](O)[C@@H]2O[C@H]12` ?
False

How about `CO[C@@H]1COC(=O)CC=C[C@@H](C)[C@@H]2C=C[C@H](O)[C@@H](COC(=O)CCC[C@H]1C)O2` ?
False

How about `NCCCCCNC(=O)[C@@H]1C[C@@H]2C(=O)N3CCC[C@H]3C(=O)N2[C@@H]1c1cccc(OCCO)c1` ?
False

How about CN1C(=O)C2C=CC(C(O)c3ccc(I)cc3)N(NC(=O)OC(C)(C)C)C2C1=O (centres undefined) ?
True

How about `COC(=O)[C@H]1COC(c2ccc(OCCCO)cc2)=N1` ?
True

How about `COc1ccc([Si](C)(C)[C@H]2[C@H](CCO)O[C@@]3(C(=O)N(Cc4cccc(NC(=O)[C@H](C)O)c4)c4ccccc43)[C@@H]2C)cc1` ?
True

How about `CCc1cc2c(nc1CC)CCN(CCC(C)=NOC[C@@H](O)COCc1ccco1)C2` ?
True

How about `COCCOC(=O)N1C(=O)[C@@]2(c3cc(C#CCNC(N)=O)ccc31)[C@H](c1ccccc1OCCO)N1[C@H](c3ccccc3)[C@H](c3ccccc3)OC(=O)[C@H]1[C@@H]2C(=O)N1CCN(c2ncccn2)CC1` ?
True
